Measured values drawn from PubChem BioAssay AID1508591 for this set.

Entries annotated with measured half-life
# experimental.setup: rat; liver microsomes; pH 7.4; 15.0 min; 1.0 µM
Enter your answer as a number in min; do not include the unit.

See these solved cases before continuing.
compound	parameter	reading
COC(=O)c1ccc(NC(=O)c2nc3ccccc3n(C)c2=O)cc1	half-life	2.98
O=C1CCCC2=C1C(c1ccccc1Cl)N=C(Nc1nc3ccccc3o1)N2 (stereo unspecified)	half-life	9.38
Cc1ccc(NC(=O)c2cc(S(=O)(=O)NCCC3=CCCCC3)ccc2F)cc1F	half-life	2.07
Cc1cc(Br)ccc1NC(=O)C(NS(=O)(=O)c1cccs1)c1ccccc1 (stereo unspecified)	half-life	7.26
CC(=O)Nc1ccc(NC(=O)C(NS(=O)(=O)c2ccc(Br)s2)c2ccccc2)cc1 (stereo unspecified)	half-life	8.13

Ask: Tell us which half-life value is on record for `Cc1cccc(-c2cc(NC(=O)c3ccccc3C)n(-c3ccccc3)n2)c1`
Result: 3.18

Ask: Tell us which half-life value is on record for `O=C1CCCC2=C1C1(CCSCC1)N=C(Nc1nc3ccccc3o1)N2`
Result: 2.3

Ask: Tell us which half-life value is on record for `CCn1c(-c2nonc2N)nc2cnc(Oc3cccc(NC(=O)c4ccc(OCCN5CCOCC5)cc4)c3)cc21`
Result: 6.56

Ask: Tell us which half-life value is on record for `CC(C)c1ccccc1-c1ncc(F)c(NC(C)(C)c2ccc(-n3ccnn3)cc2)n1`
Result: 1.6

Ask: Tell us which half-life value is on record for `CCOc1ccc(CCNC(=O)c2cc3sccc3n2Cc2ccc(Cl)c(F)c2)cc1OCC`
Result: 1.75

----------
# experimental.setup: rat; liver microsomes; pH 7.4; 15.0 min; 1.0 µM
parameter: half-life
Quote the value and follow it with the unit of measurement.

molecule.smiles	parameter	reading
CC(C)CN(C[C@@H](O)[C@H](Cc1ccccc1)NC(=O)O[C@@H]1CO[C@H]2OCC[C@H]21)S(=O)(=O)c1ccc(N)cc1	half-life	13.8 min
CC(C)c1ccccc1-c1ncc(F)c(NC2(c3ccc(-c4cccnc4)cc3)CC2)n1	half-life	8.9 min
CC(=O)c1c(C)c(C(=O)Nc2cccc([S+](=O)([O-])N(C)C)c2)n(C)c1C	half-life	15 min

Now turn to the next compound.
Ask: Tell us which half-life value is on record for `Cc1ccc(S(=O)(=O)Nc2cnccc2C(=O)Nc2ccc(S(=O)(=O)Nc3nccs3)cc2)cc1`
Result: 5.3 min

----------
# experimental.setup: rat; liver microsomes; pH 7.4; 15.0 min; 1.0 µM
parameter: half-life (min)
Enter your answer as a number in min; do not include the unit.

molecule.smiles	units	half-life
O=C(Nc1nc(-c2ccccc2)cs1)c1ccncc1NS(=O)(=O)c1ccc(F)c(F)c1	min	11
COc1ccccc1CN1CCNc2cc(Nc3ccccc3)ncc2C1	min	1.21

Ask: Tell us which half-life value is on record for `O=C(Nc1nc(-c2ccccc2)cs1)c1ccncc1NS(=O)(=O)c1ccc(N2CCCC2=O)cc1`
Result: 1.6

----------
# experimental.setup: rat; liver microsomes; pH 7.4; 15.0 min; 1.0 µM
Entries annotated with measured half-life

See these solved cases before continuing.
compound	half-life
COc1cc(Cl)ccc1C(=O)Nc1nc(-c2ccccc2)cs1	14 min
CCOC(=O)c1nn(-c2ccc(OC)cc2)c(=O)c2c(N)scc12	9.52 min
Nc1c(-c2ccccc2)cc[nH]c1=O	> 30 min

Ask: Tell us which half-life value is on record for `FC(F)(F)c1ccc(CNc2nc(-c3ccccc3C(F)(F)F)nc3ccccc23)cc1`
Result: > 30 min

Ask: Tell us which half-life value is on record for O=C1Nc2ccccc2C12CC2c1cc(Cl)c(O)c(Cl)c1 (stereo not given)
Result: 9.8 min

Ask: Tell us which half-life value is on record for `O=C(Nc1ncc(Cc2ccc(C(F)(F)F)cc2)s1)c1ccc(-c2ccc([N+](=O)[O-])cc2)o1`
Result: > 30 min

Ask: Tell us which half-life value is on record for `Cn1c(=O)c2c(nc(Cl)n2Cc2ccc(Cl)cc2)n(C)c1=O`
Result: > 30 min

Ask: Tell us which half-life value is on record for `CCn1c(SCc2ccc(C#N)cc2)nnc1-c1cccc(Cl)c1`
Result: 3 min

Ask: Tell us which half-life value is on record for `O=C(Nc1cccc(C(F)(F)F)c1)c1ccccc1NC(=O)C1CCCCC1`
Result: 25 min

----------
# experimental.setup: rat; liver microsomes; pH 7.4; 15.0 min; 1.0 µM
Entries annotated with measured half-life
Enter your answer as a number in min; do not include the unit.

compound	units	half-life
Nc1c(C(=O)Nc2ccc(Cl)c(C(F)(F)F)c2)sc2nc3c(cc12)N1CCC3CC1	min	22.1

Ask: Tell us which half-life value is on record for COc1ccc(-n2nc3c(N4CCCC(C(=O)NCCc5ccc(C)cc5)C4)nnc(C)c3c2C)cc1 (stereo not given)
Result: 2.6

Ask: Tell us which half-life value is on record for `NC(=O)C1CCN(c2ncc(-c3ccc(Br)cc3)s2)CC1`
Result: 3.6

Ask: Tell us which half-life value is on record for `COc1ccccc1Nc1ccnc(N2CCN(C(=O)c3ccccc3Cl)CC2)n1`
Result: 7.9

Ask: Tell us which half-life value is on record for `O=C([C@H](Cc1ccc(O[S+](=O)([O-])c2cccc3cnccc23)cc1)N[S+](=O)([O-])c1cccc2cnccc12)N1CCN(Cc2ccccc2)CC1`
Result: 16

Ask: Tell us which half-life value is on record for `CSc1cc2c(s1)c1cnn(Cc3cccc(N)c3)c(=O)c1n2C`
Result: 3.6

Ask: Tell us which half-life value is on record for `CCNc1oc(-c2cccc3ccccc23)nc1C#N`
Result: 13

Ask: Tell us which half-life value is on record for `Cc1ccc(C2=CSC(NC(=O)CSc3nncn3C)=NN2)cc1`
Result: 1.8

Ask: Tell us which half-life value is on record for `O=C(NCCCNc1nc(Nc2cccc(CN3CCOCC3)c2)ncc1C1CC1)C1CCC1`
Result: 6.85

Ask: Tell us which half-life value is on record for `COc1cc(/C=C2\C(=O)Nc3ccccc32)ccc1O`
Result: 12

Ask: Tell us which half-life value is on record for `Cc1ccc(-c2nn(C(C)(C)C)c3ncnc(N)c23)cc1`
Result: 4.87

Ask: Tell us which half-life value is on record for `Cc1sc(NC(=O)Cc2ccc3c(c2)OCO3)nc1-c1ccc2c(c1)CCN2C(=O)c1ccccc1Cl`
Result: 24

----------
# experimental.setup: rat; liver microsomes; pH 7.4; 15.0 min; 1.0 µM
parameter: log10 half-life (log10 of the value in min)
Plainly stated, the numbers are log10 of half-life given in min.

See these solved cases before continuing.
compound	log10 half-life
COc1cccc(Cn2c(=O)n(-c3cccc(Cl)c3C)c(=O)c3c4c(sc32)CN(C(C)=O)CC4)c1	0.50
COc1cccc(CNc2ccc(S(=O)(=O)Nc3nccs3)cc2)c1	1.18
CC1CCC(n2c3cnccc3c3cnc(Nc4ccc5c(n4)CCN(C(=O)CO)C5)nc32)CC1 (stereo not given)	1.37
Fc1ccccc1CNCc1ccc(-c2ccnc3[nH]ccc23)cc1	0.17
Cc1cccc(-n2cnc3cc(C(=O)N4CCCC(C(F)(F)F)C4)ccc32)c1 (stereo not given)	0.11
COc1cccc(OC)c1C(=O)Nc1ccccc1C(=O)Nc1cccc(C(F)(F)F)c1	0.49
O=C(Nc1nc(-c2ccccc2)cs1)c1ccncc1NS(=O)(=O)c1cccs1	1.08
CCOc1ccc(CCNC(=O)c2cc3ncccc3n2Cc2cccc(C)c2)cc1OCC	0.28

Now turn to the next compound.
Ask: Tell us which log10 half-life value is on record for `O=C(Oc1ccc[nH]c1=O)c1cc([N+](=O)[O-])cc([N+](=O)[O-])c1`
Result: 0.16

----------
# experimental.setup: rat; liver microsomes; pH 7.4; 15.0 min; 1.0 µM
Entries annotated with measured half-life
Enter your answer as a number in min; do not include the unit.

molecule	units	half-life
CC(CNC(=O)C1CCN(Cc2cc3ccccc3n2Cc2ccccc2)CC1)c1ccccc1 (stereo not given)	min	1.15
COc1ccc(C(=O)Nc2ccc3c(c2)N(C2CCCC2)C(=O)c2ccccc2S3)cc1OC	min	1.7

Ask: Tell us which half-life value is on record for `O=C(Nc1nc(-c2ccccc2)cs1)c1ccncc1NS(=O)(=O)c1cccc(Cl)c1`
Result: 5

----------
Entries annotated with measured half-life
# experimental.setup: rat; liver microsomes; pH 7.4; 15.0 min; 1.0 µM
Enter your answer as a number in min; do not include the unit.

compound	parameter	reading
COc1cc(/C=C(\C#N)c2nc3ccccc3[nH]2)ccc1OCc1ccc(F)cc1	half-life	7.99
COc1cccc(CNc2ccc([S+](=O)([O-])Nc3ccccc3)cc2)c1Cl	half-life	2.4
O=C(Nc1ccc(Cl)cc1)C(NS(=O)(=O)c1cccs1)c1ccccc1 (stereo unspecified)	half-life	5.38
Clc1ccc2ncc(-c3cccc(NC4CCNC4)n3)n2c1 (stereo unspecified)	half-life	21.8
COc1ccc(C2Nc3ccccc3C(=O)N2Cc2ccco2)cc1 (stereo unspecified)	half-life	1.6
Cc1ccnc(NC(=S)N2CCCC(Nc3cccc(C(F)(F)F)c3)C2)c1 (stereo unspecified)	half-life	11
Cn1nnnc1Sc1ncnc2scc(-c3cc4ccccc4o3)c12	half-life	1.05
CCN1C(=O)c2ccccc2S(=O)c2ccc(NC(=O)Cc3ccc(OC)cc3)cc21 (stereo unspecified)	half-life	6.1

Ask: Tell us which half-life value is on record for `CSc1ccccc1-c1ccc(Nc2nc(-c3ccncc3)nc3ccccc23)cc1F`
Result: 5.1

Ask: Tell us which half-life value is on record for `CC(C)(C)c1ccc(C(=O)Nc2ccc3c(c2)CCCN3C(=O)c2cccs2)cc1`
Result: 2.33

Ask: Tell us which half-life value is on record for `COc1ccc(NC(=O)C23CC4CC(CC(C4)C2)C3)cc1[S+](=O)([O-])Nc1ccc(Br)cc1`
Result: 5

Ask: Tell us which half-life value is on record for COc1ccc(C(=O)NC2CCCc3c2[nH]c2c(Cl)cccc32)cc1OC (stereo unspecified)
Result: 22.4
